Tested on: JURKAT cells (acute T cell human leukemia)
CONDITION DESCRIPTION: JURKAT, addition of ethanol solution to culture media
READOUT: IC50 (µM)
Give bare numbers, in µM.

Given the molecule CCCCCCCCCCCCCCCC(=O)OCC(CO)(CO)NC(=O)CNC(=O)CCCc1ccc(N(CCCl)CCCl)cc1 [CGTP1, Chlorambucil-Gly-Tris-Monopalmitate] , what is its reported IC50?
6.5

###

Tested on: UVB induced oedema
ASSAY INFO: UVB erythema assay (net skin fold thickness)
Format: in vivo, Skh-1 hairless albino female mice
CONDITION DESCRIPTION: 0.5 mg/mouse topical, applied Day 0 after UV exposure, 2MED UVB
READOUT: Mean Net Skin Fold Thickness

// worked examples, Mean Net Skin Fold Thickness included
CCCCCCCCCCCCCCCC(=O)OCC(CO)(COC(=O)CCCCCCCCCCCCCCC)NC(=O)CNC(=O)CCC(=O)OCC(=O)C1(O)CCC2C3CCC4=CC(=O)CCC4(C)C3C(O)CC21C (stereo not drawn) [HC-Suc-GTP2, Hydrocortisone-Suc-Gly-Tris-Dipalmitate] | 60.6 ± 8.6 10^−2 mm
CCCCCCCCCCCCCCCC(=O)OCC(COC(=O)CCCCCCCCCCCCCCC)(COC(=O)CCCCCCCCCCCCCCC)NC(=O)CNC(=O)CCC(=O)OCC(=O)[C@@]1(O)CC[C@H]2[C@@H]3CCC4=CC(=O)CC[C@]4(C)[C@H]3[C@@H](O)C[C@@]21C | 42.7 ± 13.7 10^−2 mm
C[C@]12CCC(=O)C=C1CC[C@@H]1[C@@H]2[C@@H](O)C[C@@]2(C)[C@H]1CC[C@]2(O)C(=O)CO [Hydrocortisone, reference compound] | 10.4 ± 8.19 10^−2 mm

Here is another compound to look at.
Requested read-out Mean Net Skin Fold Thickness, target or system UVB induced oedema, entry CCCCCCCCCCCCCCCC(=O)OCC(COC(=O)CCCCCCCCCCCCCCC)(COC(=O)CCCCCCCCCCCCCCC)NC(=O)CNC(=O)CCC(=O)OCC(=O)C1(O)CCC2C3CCC4=CC(=O)CCC4(C)C3C(O)CC21C (stereo not drawn) [HC-Suc-GTP3, Hydrocortisone-Suc-Gly-Tris-Tripalmitate]
55.8 ± 11.7 10^−2 mm
